# measurement-target: NAD-dependent protein deacetylase sirtuin-1 (Homo sapiens)
# Sequence (Q96EB6 whole entry): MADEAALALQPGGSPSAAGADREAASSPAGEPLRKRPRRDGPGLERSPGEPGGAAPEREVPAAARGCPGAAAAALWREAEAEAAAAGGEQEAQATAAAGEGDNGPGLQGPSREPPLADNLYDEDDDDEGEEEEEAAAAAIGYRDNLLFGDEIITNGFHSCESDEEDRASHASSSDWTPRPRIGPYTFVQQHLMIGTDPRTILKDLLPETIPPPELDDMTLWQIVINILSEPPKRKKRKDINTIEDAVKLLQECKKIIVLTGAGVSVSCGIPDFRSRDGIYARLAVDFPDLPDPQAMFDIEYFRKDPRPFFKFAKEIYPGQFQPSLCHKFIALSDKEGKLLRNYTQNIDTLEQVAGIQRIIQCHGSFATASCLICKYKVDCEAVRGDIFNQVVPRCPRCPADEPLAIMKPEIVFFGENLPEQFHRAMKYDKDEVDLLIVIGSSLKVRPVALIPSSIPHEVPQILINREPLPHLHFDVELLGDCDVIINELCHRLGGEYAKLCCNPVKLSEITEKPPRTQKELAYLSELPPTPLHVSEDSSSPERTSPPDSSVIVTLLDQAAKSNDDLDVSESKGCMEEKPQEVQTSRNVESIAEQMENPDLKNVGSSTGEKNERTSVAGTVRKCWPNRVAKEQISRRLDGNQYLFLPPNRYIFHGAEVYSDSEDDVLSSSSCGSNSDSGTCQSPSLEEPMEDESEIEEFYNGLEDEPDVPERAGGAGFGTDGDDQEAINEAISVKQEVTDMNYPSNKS
# assay-comment: Inhibition of recombinant human SIRT1 (193 to 747 residues) expressed in Escherichia coli BL21 (DE3) using AMC-labeled p53-derived acetylated lysine as substrate in presence of NAD+ by HTS assay

{"smiles-code": "Fc1cccc(-n2cc(CSC(=S)N3CCN(C(=S)SCc4cn(-c5ccccc5F)nn4)CC3)nn2)c1", "measure-unit": "nM", "IC50": 1080}

Origin of values: ChEMBL document CHEMBL3856182
